The measurements presented in this section are drawn from ChEMBL document CHEMBL4842320.

tested target: Stromelysin-1 (Homo sapiens)
Sequence (P08254 whole entry): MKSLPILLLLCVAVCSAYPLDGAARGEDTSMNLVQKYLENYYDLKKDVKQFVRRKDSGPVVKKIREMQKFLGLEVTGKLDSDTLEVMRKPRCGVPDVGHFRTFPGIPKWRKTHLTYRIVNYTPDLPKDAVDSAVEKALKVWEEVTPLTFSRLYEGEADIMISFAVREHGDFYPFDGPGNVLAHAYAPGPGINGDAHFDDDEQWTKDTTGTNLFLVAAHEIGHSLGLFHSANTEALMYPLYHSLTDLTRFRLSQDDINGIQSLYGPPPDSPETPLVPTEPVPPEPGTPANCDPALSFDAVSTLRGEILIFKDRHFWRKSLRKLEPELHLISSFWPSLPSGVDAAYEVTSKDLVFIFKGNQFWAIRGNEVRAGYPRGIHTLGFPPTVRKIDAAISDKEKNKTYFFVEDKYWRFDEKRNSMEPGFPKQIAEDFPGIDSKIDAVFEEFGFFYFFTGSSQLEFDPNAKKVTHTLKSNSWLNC
reported metric: IC50 (µM)
Answer format: numeric, µM implied, no suffix.

Summary line: CCCCCCC/C=C/[C@@H]1O[C@@]2(O)C(=O)C=C3C[C@H](O[C@@H]4O[C@H](CO)[C@@H](O)[C@H](O)[C@H]4O)C[C@H]3[C@@H]2C=C1C , Stromelysin-1 (Homo sapiens), reported IC50 = 50
